Each recorded value in this set is attributed to patent EP0393104B1.

TEST_DETAILS: HPLC of ADS, 5-ASA and Ac-5-ASA in faecal dialysates (equilibrium in vivo dialysis of faeces)
Parameters: species or system patients
CONDITION_INFO: Olsalazine dose/day 4 g (n=18); ulcerative colitis; mean±SD; read-out: Concentrations in faecal dialysates
RECORDED_ENDPOINT: concentration (µM)
Write the answer as a number in µM, unit excluded.

### Prompt For O=C(O)c1cc(N=Nc2ccc(O)c(C(=O)O)c2)ccc1O [Olsalazine, disodium-azodisalicylate] , what is its reported concentration?
### Response 270

---

TEST_DETAILS: HPLC of ADS, 5-ASA and Ac-5-ASA in serum
Assay type: in vivo, patients
CONDITION_INFO: Olsalazine dose/day 3 g (n=20); ulcerative colitis; mean±SD; read-out: Concentrations in serum
Procedure: Aone year treatment period was planned including scheduled visits at two weeks and at two, four, six, eight, ten, and 12 months, in addition to in-between visits, if needed. Before entry and at each visit the clinical disease activity was assessed (see below) and a laboratory screening was done. […]
RECORDED_ENDPOINT: concentration
Dear colleague, please send the value followed by its unit.

### Prompt For O=C(O)c1cc(N=Nc2ccc(O)c(C(=O)O)c2)ccc1O [Olsalazine, disodium-azodisalicylate] , what is its reported concentration?
### Response 22 µM
